This collection of values is drawn from patent US8999981B2.

Protein Kinase C beta 2 (PKCβII) (Homo sapiens (Human)) Ki data
Express it in nM; write the number only.

C=CCN1C[C@H](C)N(C(=O)N2Cc3c(NC(=O)c4ccccn4)n[nH]c3C2(C)C)C[C@H]1C [Example A89]: 15.7
CCN1CCN(C(=O)N2Cc3c(NC(=O)c4ccccn4)n[nH]c3C2(C)C)CC1C (stereo not shown) [Example A128]: 156
CC[C@H]1CN2CCC[C@H]2CN1C(=O)N1Cc2c(NC(=O)c3ccc(F)cc3)n[nH]c2C1(C)C [Example A73]: 115

Now consider the entry below.
Fill in: Protein Kinase C beta 2 (PKCβII) (Homo sapiens (Human)) Ki for C[C@H]1CN2CCC[C@H]2CN1C(=O)N1Cc2c(NC(=O)c3ccc4cnccc4n3)n[nH]c2C1(C)C [Example E4] = 6.17

---

Parameter 'readout' = pKi; parameter 'system' = Protein Kinase C beta 2 (PKCβII) (Homo sapiens (Human)).
In plain terms, pKi is the concentration in mol/L turned into minus its base-10 logarithm.

Example results:
CC1(C)c2[nH]nc(NC(=O)c3ccccn3)c2CN1C(=O)C1(F)CCN(C2CCOCC2)CC1: 7.05
CCc1cc(C(=O)Nc2n[nH]c3c2CN(C(=O)N2C[C@@H]4CCCN4C[C@@H]2C)C3(C)C)no1 [Example E1]: 7.21
CCc1cc(C(=O)Nc2n[nH]c3c2CN(C(=O)N2C[C@@H](C)N(CC4CCOCC4)C[C@@H]2C)C3(C)C)on1: 7.49

Turning now to a further compound:
Reported Protein Kinase C beta 2 (PKCβII) (Homo sapiens (Human)) pKi for item Cc1ocnc1C(=O)Nc1n[nH]c2c1CN(C(=O)N1C[C@@H](C)N(C)C[C@@H]1C)C2(C)C was 7.35

---

pKi tested on Protein Kinase C beta 2 (PKCβII) (Homo sapiens (Human), UniProt P05771): recorded values
Sequence (P05771 other isoform, or with tags, fused parts or gaps): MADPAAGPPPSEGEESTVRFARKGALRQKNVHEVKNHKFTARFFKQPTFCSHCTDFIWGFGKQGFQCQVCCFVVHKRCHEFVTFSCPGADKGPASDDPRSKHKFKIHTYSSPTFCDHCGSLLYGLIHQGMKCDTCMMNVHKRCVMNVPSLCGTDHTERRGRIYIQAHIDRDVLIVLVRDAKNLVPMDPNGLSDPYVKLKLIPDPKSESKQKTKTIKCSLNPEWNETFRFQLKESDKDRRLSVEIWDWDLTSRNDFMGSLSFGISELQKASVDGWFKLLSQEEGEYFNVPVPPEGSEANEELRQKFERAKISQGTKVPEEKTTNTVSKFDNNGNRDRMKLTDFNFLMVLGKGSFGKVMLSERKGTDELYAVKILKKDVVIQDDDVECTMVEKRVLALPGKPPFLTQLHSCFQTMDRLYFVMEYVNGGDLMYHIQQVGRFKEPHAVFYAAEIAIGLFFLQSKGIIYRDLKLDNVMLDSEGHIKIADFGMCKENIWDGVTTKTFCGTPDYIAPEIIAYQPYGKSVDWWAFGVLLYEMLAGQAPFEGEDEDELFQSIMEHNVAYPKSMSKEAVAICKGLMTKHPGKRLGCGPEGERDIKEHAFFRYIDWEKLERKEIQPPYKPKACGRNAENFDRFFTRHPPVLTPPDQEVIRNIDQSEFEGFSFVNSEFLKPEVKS
The value called pKi is obtained by taking minus log10 of the concentration in mol/L.

CN1CCN(C(=O)N2Cc3c(NC(=O)c4ccc5ccccc5n4)n[nH]c3C2(C)C)[C@@H](Cc2ccccc2)C1 [Example A8]: 7.11
C[C@H]1CN2CCC[C@H]2CN1C(=O)N1Cc2c(NC(=O)c3ccc(F)cn3)n[nH]c2C1(C)C [Example A92]: 7.69
Cc1nc(C)c(C(=O)Nc2n[nH]c3c2CN(C(=O)N2C[C@@H](C)N(CC4CCOCC4)C[C@@H]2C)C3(C)C)o1 [Example F20]: 7.71
C[C@H]1CN2CCC[C@H]2CN1C(=O)N1Cc2c(NC(=O)c3c(F)cccc3Cl)n[nH]c2C1(C)C [Example A38]: 6.74
CC1(C)c2[nH]nc(NC(=O)c3ccccc3)c2CN1C(=O)N1CCN2CCCC2C1 (centres unmarked) [Example A16]: 6.95
COCCCN1C[C@H](C)N(C(=O)N2Cc3c(NC(=O)c4cnccn4)n[nH]c3C2(C)C)C[C@H]1C [Example F3]: 6.20

Note to self: pKi of CC1(C)CN2CCC[C@H]2CN1C(=O)N1Cc2c(NC(=O)c3cccc(Cl)c3)n[nH]c2C1(C)C [Example A57] with Protein Kinase C beta 2 (PKCβII) (Homo sapiens (Human), UniProt P05771) was 7.06

Record for C[C@H]1CN2CCC[C@H]2CN1C(=O)N1Cc2c(NC(=O)c3c(F)cccc3C(F)(F)F)n[nH]c2C1(C)C [Example A37] under target or system Protein Kinase C beta 2 (PKCβII) (Homo sapiens (Human), UniProt P05771): pKi reported as 6.81

---

Collected Ki values appear next to each entry.
biological target: Protein Kinase C beta 2 (PKCβII) (Homo sapiens (Human), UniProt P05771)
Supply the numeric figure in nM, leaving out any unit text.

Take a look at these entries with their results.
Cc1cc(C(=O)Nc2n[nH]c3c2CN(C(=O)N2C[C@@H](C)N(CC4CCOCC4)C[C@@H]2C)C3(C)C)n(C)n1: 33
C[C@@H]1CN(C(=O)N2Cc3c(NC(=O)c4ccccn4)n[nH]c3C2(C)C)[C@@H](C)CN1CC1(C)COC1: 37

Continue with the compound presented below.
Tested on Protein Kinase C beta 2 (PKCβII) (Homo sapiens (Human), UniProt P05771), the item Cc1cccc(C(=O)Nc2n[nH]c3c2CN(C(=O)N2C[C@@H]4CCCN4C[C@@H]2C)C3(C)C)c1 showed Ki equal to 54.5

---

Record set of pKi for target or system Protein Kinase C beta 2 (PKCβII) (Homo sapiens (Human)).
As a rule, pKi stands for the negative log10 of the concentration, concentration in M.

CC1(C)c2[nH]nc(NC(=O)c3cccc(Oc4ccccc4)c3)c2CN1C(=O)N1CCNCC1c1ccccc1 (centres unmarked): 7.25

// Cc1nonc1C(=O)Nc1n[nH]c2c1CN(C(=O)N1C[C@@H](C)N(CC3CCOCC3)C[C@@H]1C)C2(C)C : pKi value = 7.33

For this compound ( Cc1nc(C)c(C(=O)Nc2n[nH]c3c2CN(C(=O)N2C[C@@H]4CCCN4C[C@@H]2C)C3(C)C)o1 ), measured pKi is 7.54

What the record says about C[C@H]1CN2CCC[C@H]2CN1C(=O)N1Cc2c(NC(=O)c3ccc(C(F)(F)F)cn3)n[nH]c2C1(C)C : pKi is 7.50

Documented pKi of C[C@@H]1CN(C(=O)N2Cc3c(NC(=O)c4ccc(C#N)cn4)n[nH]c3C2(C)C)[C@@H](C)CN1C : 7.54

pKi reading for CCCN1C[C@H](C)N(C(=O)N2Cc3c(NC(=O)c4ccccn4)n[nH]c3C2(C)C)C[C@H]1CCO : 8.02

Field pKi (entry C[C@H]1CN2CCC[C@H]2CN1C(=O)N1Cc2c(NC(=O)c3ccc(Cl)cn3)n[nH]c2C1(C)C ) reads 7.61

pKi recorded for this compound, CCN1C[C@H](C)N(C(=O)N2Cc3c(NC(=O)c4ccc(F)cn4)n[nH]c3C2(C)C)C[C@@H]1C , is 7.65

// pKi value for C[C@@H]1CN(C(=O)N2Cc3c(NC(=O)c4coc(C5CC5)n4)n[nH]c3C2(C)C)[C@@H](C)CN1C : 7.60

---

target: UniProt P05771; assay: PKCβII coupled PK/LDH spectrophotometric kinase assay; assay type: biochemical; settings: apparent Ki, ATP-competitive model (Morrison equation); 0.1 mM ATP, 30° C.; read-out: PKCb Ki
As shown below, each of these compounds has a reported pKi value.
Here pKi is given on a logarithmic scale as minus log10 of the concentration in mol/L.

Value of pKi reported for the compound CCc1cc(C(=O)Nc2n[nH]c3c2CN(C(=O)N2C[C@@H](C)N(CC4CCOCC4)C[C@@H]2C)C3(C)C)no1 [Example F19] is 7.58

The compound C[C@H]1CN2CCC[C@H]2CN1C(=O)N1Cc2c(NC(=O)c3ccc(Cl)c(Cl)c3)n[nH]c2C1(C)C [Example A36] showed pKi equal to 7.86

In plain terms, Cc1nc(C(=O)Nc2n[nH]c3c2CN(C(=O)N2C[C@@H](C)N(CC4CCOCC4)C[C@@H]2C)C3(C)C)c(C)o1 [Example F23] has a documented pKi of 7.50

Data point: C[C@H]1CN(C)[C@@H](CCO)CN1C(=O)N1Cc2c(NC(=O)c3ccccn3)n[nH]c2C1(C)C [Example A151] ; pKi = 6.82

The compound listed as CC(C)[C@H]1CN(C)C(C)(C)CN1C(=O)N1Cc2c(NC(=O)c3ccccn3)n[nH]c2C1(C)C [Example A134] has a reported pKi of 7.05

---

target: Protein Kinase C beta 2 (PKCβII) (Homo sapiens (Human))
READOUT_NAME: pKi
Reminder that pKi is minus the log10 of a molar concentration.

Previously resolved entries follow.
CCc1ccc(C(=O)Nc2n[nH]c3c2CN(C(=O)N2C[C@@H]4CCCN4C[C@@H]2C)C3(C)C)nc1: 7.09
C[C@H]1CN2CCC[C@H]2CC1C(=O)N1Cc2c(NC(=O)c3csc(Br)n3)n[nH]c2C1(C)C (stereo partly drawn): 7.89
COc1cccc(C(=O)Nc2n[nH]c3c2CN(C(=O)N2C[C@@H]4CCCN4C[C@@H]2C)C3(C)C)c1 [Example A39]: 7.32
C[C@@H]1CN(C(=O)N2Cc3c(NC(=O)c4cn(C)cn4)n[nH]c3C2(C)C)[C@@H](C)CN1CC1CCOCC1 [Example E14]: 6.81
CC(C)[C@H]1CN(C)C(C)CN1C(=O)N1Cc2c(NC(=O)c3ccc(Cl)cn3)n[nH]c2C1(C)C (stereo partly drawn): 7.29

Given the compound CC1(C)c2[nH]nc(NC(=O)c3ccc4ccccc4n3)c2CN1C(=O)N1C[C@@H]2CCCN2C[C@@H]1Cc1ccccc1 and test system Protein Kinase C beta 2 (PKCβII) (Homo sapiens (Human)), the measured pKi is 7.79

Bench note, Protein Kinase C beta 2 (PKCβII) (Homo sapiens (Human)): entry CC1(C)c2[nH]nc(NC(=O)c3cccc(F)c3F)c2CN1C(=O)N1C[C@@H]2CCCN2C[C@@H]1Cc1ccccc1 , its pKi = 7.29

Hey, Protein Kinase C beta 2 (PKCβII) (Homo sapiens (Human)) data for C[C@@H]1CN(C(=O)N2Cc3c(NC(=O)c4ccn(C)n4)n[nH]c3C2(C)C)[C@@H](C)CN1CC1CCOCC1 : pKi came out at 7.59

Record CC1(C)c2[nH]nc(NC(=O)c3cccc(Cl)n3)c2CN1C(=O)N1CCN2CCCC2C1 (stereo not drawn) ; system Protein Kinase C beta 2 (PKCβII) (Homo sapiens (Human)); pKi = 7.37

Param item: COc1cccc(C(=O)Nc2n[nH]c3c2CN(C(=O)N2C[C@@H]4CCCN4C[C@@H]2C)C3(C)C)c1 [Example E5] ; param system: Protein Kinase C beta 2 (PKCβII) (Homo sapiens (Human)); output pKi: 7.43

Tested on Protein Kinase C beta 2 (PKCβII) (Homo sapiens (Human)): C[C@@H]1CN(C(=O)N2Cc3c(NC(=O)c4ccccn4)n[nH]c3C2(C)C)[C@@H](C)CN1CCCCC#N . Observed pKi: 7.42
